- PROCEDURE_SUMMARY: NCI Yeast Anticancer Drug Screen. Data for the sgs1 mgt1 strain (AID 161)
- DETAILS: S. cerevisiae sgs1 mgt1 strain, at 50.0 µM (retest, dose inferred, filed as 5.0)
The panel holds about 79,000 compounds, 15% with a hit somewhere; the sample as a whole holds those more often. Calls of active or inactive are those of the source. Rule as the data show it: active = growth inhibition above about 70%; inactive = the rest.
Assign a class; possible classes are active, inactive

# count of solved cases: 5
Query string: I would be grateful if you could indicate the recorded call for `CO/N=C/c1cc(NC(=S)c2ccoc2C)ccc1Cl` .
Result string: inactive

Query string: I would be grateful if you could indicate the recorded call for `C(=C\c1cnnc2ccccc12)/c1ccco1` .
Result string: inactive

Query string: I would be grateful if you could indicate the recorded call for C=C1CCC[C@@H]2[C@@](C)(CC3=CC(=O)C=CC3=O)C(C)CC[C@]12C (stereo partly specified) .
Result string: active

Query string: I would be grateful if you could indicate the recorded call for `COc1cc(C(=O)C=[N+]=[N-])c([N+](=O)[O-])c(OC)c1OC` .
Result string: active

Query string: I would be grateful if you could indicate the recorded call for `Cc1ccccc1NC(=S)N/N=C(/c1ccccc1)c1ccccn1` .
Result string: active

Continuing:
Query string: I would be grateful if you could indicate the recorded call for COC(=O)c1ccc2c(c1)CC1(C2)Cc2ccccc2C1=O (stereo unspecified) .
Result string: active

Query string: I would be grateful if you could indicate the recorded call for `CCN(CC)CCC(=O)/C=C/c1ccc(Cl)c(Cl)c1` .
Result string: inactive
